Molecular target: T1, LAG-3_D3D4-His: 3rd and 4th extracellular immunoglobulin-like domains (263-450) of human LAG-3 with … (UniProt P18627 263-450)
T1 chain: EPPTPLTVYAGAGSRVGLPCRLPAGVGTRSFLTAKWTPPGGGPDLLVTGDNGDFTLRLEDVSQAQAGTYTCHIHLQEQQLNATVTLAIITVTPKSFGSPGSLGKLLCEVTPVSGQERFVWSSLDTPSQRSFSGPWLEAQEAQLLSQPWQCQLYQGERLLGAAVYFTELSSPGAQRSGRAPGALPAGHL
Test: SPR (Biacore T200)
Reported Kd by item:
Quote the value and follow it with the unit of measurement.

Worked cases, answers included:
| binder | Kd |
| --- | --- |
| humanized anti-human LAG-3 antibody hLA212_H2/L5 (antibody, human IgG1, kappa, V domains shown, Human IgG1/kappa; also called humanized hLA212_H2/L5) VH: EVQLVESGGGLVQPGGSLRLSCAASGFTYRSYVMAWVRQAPGKGLEWVGSISTGGGNTYYRDSVKGRFTISRDNAKNTLYLQMNSLRAEDTAVYYCAEDMSNSGYGLFDYWGQGTLVTVSS VL: NIQMTQSPSSMSISVGDRVTMTCKAGQNVDNNIAWYQKKPGQSPKLLIYYASNRNTGVPDRFSGGGYGTDFTLTISSVQPEDAAFYYCQRISNSPYTFGQGTKLELKR | 0.12 nM |
| humanized anti-human LAG-3 antibody hLA212_H3/L2 (antibody, human IgG1, kappa, V domains shown, Human IgG1/kappa; not in a low fucose form; also called humanized hLA212_H3/L2) VH: EVQLVESGGGLVQPGGSLRLSCAASGFTYRSYVMAWVRQAPGKGLEWVASISTGGGNTYYRDSVKGRFTISRDNAKNTLYLQMDSLRAEDTAVYYCAEDMSNSGYGLFDYWGQGTLVTVSS VL: DIQMTQSPSSLSASVGDRVTITCKAGQNVDNNIAWYQQKPGQSPKLLIYYASNRNTGVPSRFSGSGYGTDFTLTISSLQPEDFATYYCQRISNSPYTFGQGTKVEIKR | 0.062 nM |
| humanized anti-human LAG-3 antibody hLA212_H3/L4 (antibody, human IgG1, kappa, V domains shown, Human IgG1/kappa; also called humanized hLA212_H3/L4) VH: EVQLVESGGGLVQPGGSLRLSCAASGFTYRSYVMAWVRQAPGKGLEWVASISTGGGNTYYRDSVKGRFTISRDNAKNTLYLQMDSLRAEDTAVYYCAEDMSNSGYGLFDYWGQGTLVTVSS VL: DIQMTQSPSSMSISVGDRVTMTCKAGQNVDNNIAWYQKKPGQSPKLLIYYASNRNTGVPSRFSGSGSGTDFTLTISSVQPEDFATYYCQRISNSPYTFGQGTKLELKR | 0.076 nM |

Query binder follows.
Value of measured Kd for the entry humanized anti-human LAG-3 antibody hLA212_H2/L2 (antibody, human IgG1, kappa, V domains shown, Human IgG1/kappa; also called humanized hLA212_H2/L2) VH: EVQLVESGGGLVQPGGSLRLSCAASGFTYRSYVMAWVRQAPGKGLEWVGSISTGGGNTYYRDSVKGRFTISRDNAKNTLYLQMNSLRAEDTAVYYCAEDMSNSGYGLFDYWGQGTLVTVSS VL: DIQMTQSPSSLSASVGDRVTITCKAGQNVDNNIAWYQQKPGQSPKLLIYYASNRNTGVPSRFSGSGYGTDFTLTISSLQPEDFATYYCQRISNSPYTFGQGTKVEIKR : 0.12 nM

Data provenance is patent US20200262917A1.
